Test system: RAW264.7
testDescription: Cytotoxicity against mouse RAW264.7 cells assessed as reduction in cell viability at 6.0 uM incubated for 24 hrs by MTT assay
Format: cell-based
experimentalSetup: raw264.7, 24 h
measuredAttribute: Activity

Below, 8 molecules whose answers are already recorded.
CC(=O)Nc1ccc(S(=O)(=O)N2C/C(=C\c3cccnc3)C(=O)/C(=C/c3ccccc3F)C2)cc1: Non-Toxic
COc1cc(/C=C2\CN(C)C/C(=C\c3cccnc3)C2=O)cc(OC)c1OC: Non-Toxic
COc1cc(/C=C2\CN(C)C/C(=C\c3ccncc3)C2=O)cc(OC)c1: Non-Toxic
O=C1/C(=C/c2ccncc2)CN(S(=O)(=O)c2ccc(C(F)(F)F)cc2)C/C1=C\c1ccccc1C(F)(F)F: Non-Toxic
O=C1/C(=C/c2cccnc2)CN(S(=O)(=O)c2ccc(C(F)(F)F)cc2)C/C1=C\c1ccccc1C(F)(F)F: Non-Toxic
O=C1/C(=C/c2cccnc2)CN(S(=O)(=O)c2ccc([N+](=O)[O-])cc2)C/C1=C\c1ccccc1C(F)(F)F: Non-Toxic
O=C1/C(=C/c2ccncc2)CN(S(=O)(=O)c2ccc(F)cc2)C/C1=C\c1ccccc1C(F)(F)F: Non-Toxic
N#Cc1ccc(S(=O)(=O)N2C/C(=C\c3ccncc3)C(=O)/C(=C/c3ccccc3F)C2)cc1: Non-Toxic

Assay RAW264.7, sample "COc1cc(/C=C2\CN(C)C/C(=C\c3cccnc3)C2=O)cc(OC)c1" , Activity read: Non-Toxic

---

System: L02
testDescription: Cytotoxicity against human LO2 cells assessed as reduction in cell viability incubated for 24 hrs by MTT assay
Assay type: cell-based
experimentalSetup: L02, 24 h
Reported pIC50 by item:
The quantity pIC50 is defined as the negative base-10 logarithm of the molar concentration.

Below, 6 compounds whose answers are already recorded.
O=C1/C(=C/c2ccncc2)CN(S(=O)(=O)c2ccc(Br)cc2)C/C1=C\c1ccccc1F: 4.71
O=C1/C(=C/c2ccncc2)CN(S(=O)(=O)c2ccc(F)cc2)C/C1=C\c1ccccc1C(F)(F)F: 4.89
CC(=O)Nc1ccc(S(=O)(=O)N2C/C(=C\c3ccncc3)C(=O)/C(=C/c3ccccc3C(F)(F)F)C2)cc1: 4.99
Cc1ccc(S(=O)(=O)N2C/C(=C\c3cccnc3)C(=O)/C(=C/c3ccccc3F)C2)cc1: 4.83
Cc1ccc(S(=O)(=O)N2C/C(=C\c3ccncc3)C(=O)/C(=C/c3ccccc3C(F)(F)F)C2)cc1: 4.89
Cc1ccc(S(=O)(=O)N2C/C(=C\c3cccnc3)C(=O)/C(=C/c3ccccc3C(F)(F)F)C2)cc1: 4.91

Entry under test: "O=C1/C(=C/c2cccnc2)CN(S(=O)(=O)c2ccc(F)cc2)C/C1=C\c1ccccc1C(F)(F)F" . Its pIC50 was 4.79

---

System: RAW264.7
testDescription: Antiinflammatory activity in mouse RAW264.7 cells assessed as inhibition of LPS-stimulated TNF-alpha production at 6.0 uM preincubated for 2 hrs followed by LPS stimulaton measured after 22 hrs by ELISA relative to control
Assay type: functional
Active and inactive are the calls of the source. The rule behind the calls is not given here.
Assign a class; possible classes are True (active), False (inactive)

CN1C/C(=C\c2ccc(C#N)cc2)C(=O)/C(=C/c2cccnc2)C1: True
CN1C/C(=C\c2ccncc2)C(=O)/C(=C/c2ccccc2F)C1: True
O=C1/C(=C/c2ccncc2)CNC/C1=C\c1ccccc1F: False
COc1ccc(/C=C2\CN(C)C/C(=C\c3ccncc3)C2=O)c(OC)c1OC: True
Cc1ccc(S(=O)(=O)N2C/C(=C\c3ccncc3)C(=O)/C(=C/c3ccccc3F)C2)cc1: False
COc1ccc(/C=C2\CN(C)C/C(=C\c3cccnc3)C2=O)c(OC)c1OC: True

What was the test verdict on "COc1cc(/C=C2\CN(C)C/C(=C\c3cccnc3)C2=O)cc(OC)c1" ? True

---

Test system: L02
testDescription: Cytotoxicity against human LO2 cells assessed as reduction in cell viability incubated for 24 hrs by MTT assay
Assay type: cell-based
experimentalSetup: L02, 24 h
measuredAttribute: pIC50
The quantity pIC50 is defined as the negative base-10 logarithm of the molar concentration.

Below, 2 compounds whose answers are already recorded.
O=C1/C(=C/c2cccnc2)CN(S(=O)(=O)c2ccc(C(F)(F)F)cc2)C/C1=C\c1ccccc1F: 4.95
CN1C/C(=C\c2ccncc2)C(=O)/C(=C/c2ccc(F)cc2Br)C1: 4.91

Entry under test: "COc1cc(/C=C2\CN(C)C/C(=C\c3ccncc3)C2=O)cc(OC)c1" . Its pIC50 was 4.87

---

Reported IC50 by item:
System: L02
testDescription: Cytotoxicity against human LO2 cells assessed as reduction in cell viability incubated for 24 hrs by MTT assay
Assay type: cell-based
experimentalSetup: L02, 24 h
A number alone suffices; assume µM.

Below, 8 compounds whose answers are already recorded.
O=C1/C(=C/c2cccnc2)CNC/C1=C\c1ccccc1F: 15.9
O=C1/C(=C/c2ccncc2)CN(S(=O)(=O)c2ccc(Br)cc2)C/C1=C\c1ccccc1C(F)(F)F: 12.6
O=C1/C(=C/c2ccncc2)CNC/C1=C\c1ccccc1C(F)(F)F: 13.4
O=C1/C(=C/c2cccnc2)CN(S(=O)(=O)c2ccc(C(F)(F)F)cc2)C/C1=C\c1ccccc1C(F)(F)F: 14.3
O=C1/C(=C/c2cccnc2)CN(S(=O)(=O)c2ccc(Br)cc2)C/C1=C\c1ccccc1F: 14.6
CN1C/C(=C\c2ccncc2)C(=O)/C(=C/c2ccc(C(F)(F)F)cc2)C1: 17.4
O=C1/C(=C/c2ccncc2)CN(S(=O)(=O)c2ccc(C(F)(F)F)cc2)C/C1=C\c1ccccc1C(F)(F)F: 13.8
CN1C/C(=C\c2ccncc2)C(=O)/C(=C/c2ccccc2C(F)(F)F)C1: 15.8

Entry under test: "O=C1/C(=C/c2ccncc2)CN(S(=O)(=O)c2ccccc2)C/C1=C\c1ccccc1F" . Its IC50 was 15.9

Entry under test: "CN1C/C(=C\c2cccnc2)C(=O)/C(=C/c2ccccc2C(F)(F)F)C1" . Its IC50 was 14.1

Entry under test: "CC(=O)Nc1ccc(S(=O)(=O)N2C/C(=C\c3cccnc3)C(=O)/C(=C/c3ccccc3F)C2)cc1" . Its IC50 was 15.6

Entry under test: "O=C1/C(=C/c2ccncc2)CN(S(=O)(=O)c2ccccc2)C/C1=C\c1ccccc1C(F)(F)F" . Its IC50 was 12.3

Entry under test: "CN1C/C(=C\c2cccnc2)C(=O)/C(=C/c2ccc(F)cc2Br)C1" . Its IC50 was 14.4

Entry under test: "COc1ccc(/C=C2\CN(C)C/C(=C\c3cccnc3)C2=O)c(OC)c1OC" . Its IC50 was 13.6

---

Test system: RAW264.7
testDescription: Antiinflammatory activity in mouse RAW264.7 cells assessed as inhibition of LPS-stimulated TNF-alpha production at 6.0 uM preincubated for 2 hrs followed by LPS stimulaton measured after 22 hrs by ELISA relative to control
Type: functional
Active and inactive are the calls of the source. The rule behind the calls is not given here.
measuredAttribute: inhibition

CC(=O)Nc1ccc(S(=O)(=O)N2C/C(=C\c3cccnc3)C(=O)/C(=C/c3ccccc3F)C2)cc1: Active
COc1cc(/C=C2\CN(C)C/C(=C\c3cccnc3)C2=O)cc(OC)c1OC: Active
COc1cc(/C=C2\CN(C)C/C(=C\c3ccncc3)C2=O)cc(OC)c1: Active

---

System: L02
testDescription: Cytotoxicity against human LO2 cells assessed as reduction in cell viability incubated for 24 hrs by MTT assay
Type: cell-based
experimentalSetup: L02, 24 h
Reported IC50 by item:

Below, 3 compounds whose answers are already recorded.
CN1C/C(=C\c2ccc(C#N)cc2)C(=O)/C(=C/c2cccnc2)C1: > 20 µM
Cc1ccc(S(=O)(=O)N2C/C(=C\c3ccncc3)C(=O)/C(=C/c3ccccc3F)C2)cc1: > 20 µM
N#Cc1ccc(S(=O)(=O)N2C/C(=C\c3cccnc3)C(=O)/C(=C/c3ccccc3F)C2)cc1: > 20 µM

Consider now this further compound.
Entry under test: "O=C1/C(=C/c2cccnc2)CN(S(=O)(=O)c2ccc(Cl)cc2)C/C1=C\c1ccccc1F" . Its IC50 was > 20 µM

# credit: ChEMBL document CHEMBL4339189
